Consider the following compounds and their measured Ratio Ki readings.
# Species on record: Homo sapiens
# EXPERIMENT_SUMMARY: Selectivity index, ratio of Ki for inhibition of human CA2 to Ki for inhibition of human CA12

| MOLECULAR_STRING | Ratio Ki |
| --- | --- |
| N#CCCN(CCc1ccccc1)CC(=O)N(CCc1ccc(S(N)(=O)=O)cc1)Cc1ccc([N+](=O)[O-])cc1 | 3 |
| CCCCCCCCN(CCCCCCCC)CC(=O)N(CCc1ccc(S(N)(=O)=O)cc1)Cc1ccccc1 | 8.5 |
| NS(=O)(=O)c1ccc(CCN(Cc2ccc(F)cc2)C(=O)CN(CCC(=O)O)CCc2ccccc2)cc1 | 2.7 |
| CCCCCCN(CCCCCC)CCC(=O)N(CCc1ccc(S(N)(=O)=O)cc1)Cc1ccco1 | 6.2 |
| CCCCCN(CCCCC)CC(=O)N(CCc1ccc(S(N)(=O)=O)cc1)Cc1ccccc1 | 1.8 |
| N#CCCN(CCc1ccccc1)CC(=O)N(CCc1ccc(S(N)(=O)=O)cc1)Cc1ccc2ccccc2c1 | 3.8 |
| NCCCN(CCc1ccccc1)CC(=O)N(CCc1ccc(S(N)(=O)=O)cc1)Cc1ccco1 | 1.3 |
| NS(=O)(=O)c1ccc(CCNCc2ccc([N+](=O)[O-])cc2)cc1 | 1.6 |
